FYI, the data here is from patent US12054746B2.

# reported Papp A→B at 60 min; entries follow
assay name: in vitro
condition details: human
Response body: numeric value in ×10⁻⁶ cm/s, unit text excluded.

Solved entries (count: 2):
INSERT INTO measurements (compound, measured_metric, observed) VALUES
  ('CN(C)C(=N)N=C(N)N', 'Papp A→B at 60 min', 2.43),
  ('CCCC(=O)Nc1ccc(OCC(O)CNC(C)C)c(C(C)=O)c1 (stereo not drawn)', 'Papp A→B at 60 min', 2.3);

Fill in the blank: the reported Papp A→B at 60 min of C=CC[C@@H]1/C=C(\C)C[C@H](C)C[C@H](OC)[C@H]2O[C@@](O)(C(=O)C(=O)N3CCCC[C@H]3C(=O)O[C@H](/C(C)=C/[C@@H]3CC[C@@H](O)[C@H](OC)C3)[C@H](C)[C@@H](O)CC1=O)[C@H](C)C[C@@H]2OC is ____. 14.3

###

assay name: in vitro
condition details: human
measured metric: Papp A→B (×10⁻⁶ cm/s)
Response body: numeric value in ×10⁻⁶ cm/s, unit text excluded.

Fill in the blank: the reported Papp A→B of Cc1ncc2n1-c1ccc(Cl)cc1C(c1ccccc1F)=NC2 is ____. 48.3

###

# reported Papp A→B at 60 min; entries follow
assay name: in vitro
condition details: human
Response body: numeric value in ×10⁻⁶ cm/s, unit text excluded.

Fill in the blank: the reported Papp A→B at 60 min of NC(=O)c1ncn([C@@H]2O[C@H](CO)[C@@H](O)[C@H]2O)n1 is ____. 3.3

Fill in the blank: the reported Papp A→B at 60 min of NS(=O)(=O)c1cc2c(cc1Cl)NCNS2(=O)=O [Hydrochlorothiazide, hydrochlorothiazide] is ____. 4.4

Fill in the blank: the reported Papp A→B at 60 min of Cc1cc(=O)n(-c2ccccc2)n1C [Antipvrine, antipyrine] is ____. 55.6

Fill in the blank: the reported Papp A→B at 60 min of CCN1CCCC1CNC(=O)c1cc(S(N)(=O)=O)ccc1OC (stereo not shown) [Sulpiride, sulpiride] is ____. 1.45

Fill in the blank: the reported Papp A→B at 60 min of CC[C@H]1OC(=O)[C@H](C)[C@@H](O[C@H]2C[C@@](C)(OC)[C@@H](O)[C@H](C)O2)[C@H](C)[C@@H](O[C@@H]2O[C@H](C)C[C@H](N(C)C)[C@H]2O)[C@](C)(O)C[C@@H](C)C(=O)[C@H](C)[C@@H](O)[C@]1(C)O is ____. 1.24

Fill in the blank: the reported Papp A→B at 60 min of CCOC(=O)[C@H](CCc1ccccc1)N[C@@H](C)C(=O)N1CCC[C@H]1C(=O)O is ____. 1.93

Fill in the blank: the reported Papp A→B at 60 min of Cn1c(=O)c2c(ncn2C)n(C)c1=O is ____. 52.4

###

# reported Papp A→B at 60 min; entries follow
assay name: in vitro
condition details: human, Caco-2
Answer by giving the amount and then stating its unit.

INSERT INTO assay_data (compound, measured_metric, observed) VALUES
  ('C=CC[C@@H]1/C=C(\C)C[C@H](C)C[C@H](OC)[C@H]2O[C@@](O)(C(=O)C(=O)N3CCCC[C@H]3C(=O)O[C@H](/C(C)=C/[C@@H]3CC[C@@H](O)[C@H](OC)C3)[C@H](C)[C@@H](O)CC1=O)[C@H](C)C[C@@H]2OC', 'Papp A→B at 60 min', '12.3 ×10⁻⁶ cm/s'),
  ('CCOC(=O)[C@H](CCc1ccccc1)N[C@@H](C)C(=O)N1CCC[C@H]1C(=O)O', 'Papp A→B at 60 min', '0.19 ×10⁻⁶ cm/s'),
  ('CN(C)C(=N)N=C(N)N', 'Papp A→B at 60 min', '0.52 ×10⁻⁶ cm/s'),
  ('NS(=O)(=O)c1cc2c(cc1Cl)NCNS2(=O)=O [Hydrochlorothiazide, hydrochlorothiazide]', 'Papp A→B at 60 min', '2.44 ×10⁻⁶ cm/s');

Fill in the blank: the reported Papp A→B at 60 min of CC[C@H]1OC(=O)[C@H](C)[C@@H](O[C@H]2C[C@@](C)(OC)[C@@H](O)[C@H](C)O2)[C@H](C)[C@@H](O[C@@H]2O[C@H](C)C[C@H](N(C)C)[C@H]2O)[C@](C)(O)C[C@@H](C)C(=O)[C@H](C)[C@@H](O)[C@]1(C)O is ____. 0.45 ×10⁻⁶ cm/s

Fill in the blank: the reported Papp A→B at 60 min of CCCC(=O)Nc1ccc(OCC(O)CNC(C)C)c(C(C)=O)c1 (stereo not shown) is ____. 0.35 ×10⁻⁶ cm/s

Fill in the blank: the reported Papp A→B at 60 min of NC(=O)c1ncn([C@@H]2O[C@H](CO)[C@@H](O)[C@H]2O)n1 is ____. 0.32 ×10⁻⁶ cm/s
